biological target: MCR4 (human, UniProt P32245 1-332); assay: cell-based or functional assay
Sequence (P32245 whole entry): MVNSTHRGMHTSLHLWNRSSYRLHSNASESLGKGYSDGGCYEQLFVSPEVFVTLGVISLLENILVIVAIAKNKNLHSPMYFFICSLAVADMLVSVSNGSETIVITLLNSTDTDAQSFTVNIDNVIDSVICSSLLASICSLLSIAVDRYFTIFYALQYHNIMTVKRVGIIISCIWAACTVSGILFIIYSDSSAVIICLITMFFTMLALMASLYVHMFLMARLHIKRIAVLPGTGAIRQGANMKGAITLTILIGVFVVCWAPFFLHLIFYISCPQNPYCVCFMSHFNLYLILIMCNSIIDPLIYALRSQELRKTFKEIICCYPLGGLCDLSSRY
Square brackets hold non-standard residues; d marks the D form. Ends that are not written are not given here. Nle = CCCC[C@H](N)C(=O)O
Test readout: MCR4 EC50 (nM); cAMP production, LANCE cAMP assay, CHO-MCR4 cells, cell pool B
// return numeric value only (unit: nM, not printed)

Example cases with answers are listed next.
{"Binder": "NDP-α-MSH-linker-MMP site-linker-ACTH1-24 (peptide) peptide: Ac-SYS[Nle]EH[dF]RWGKPVGGGGSPLGLWAGGGGSSYSMEHFRWGKPVGKKRRPVKVYP", "Readout units": "nM", "Endpoint result": 14}
{"Binder": "ACTH1-24-linker-Furin site-linker-NDP-α-MSH (ends and bridges not checked) peptide: SYSMEHFRWGKPVGKKRRPVKVYPGGGGSRRKRGGGGSSYS[Nle]EH[dF]RWGKPV", "Readout units": "nM", "Endpoint result": 1.9}
{"Binder": "ACTH1-24-linker-MMP site-linker-NDP-α-MSH (ends and bridges not checked) peptide: SYSMEHFRWGKPVGKKRRPVKVYPGGGGSPLGLWAGGGGSSYS[Nle]EH[dF]RWGKPV", "Readout units": "nM", "Endpoint result": 5.8}

Value lookup for MCR4 EC50 (nM); cAMP production, LANCE cAMP assay, CHO-MCR4 cells, cell pool B; key = ACTH1-24-linker-MMP (broad) site-linker-NDP-α-MSH (ends and bridges not checked) peptide: SYSMEHFRWGKPVGKKRRPVKVYPGGGGSPAGLVAGGGGSSYS[Nle]EH[dF]RWGKPV
4.8

Any idea what its MCR4 EC50 (nM); cAMP production, LANCE cAMP assay, CHO-MCR4 cells, cell pool B is? The binder is XEHXRWAGASYSMEHFRWGKPVGKKRRPVKVYP (Nle, dPhe and β-Ala residues as printed: Nle-EH-dPhe-RW-β-Ala-G-β-Ala-SYSMEHFRWGKPVGKKRRPVKVYP) [NDP-ACTH4-9-βAla-G-βAla-ACTH1-24]
2.4

Which measured MCR4 EC50 (nM); cAMP production, LANCE cAMP assay, CHO-MCR4 cells, cell pool B value corresponds to XEHXRWSYSMEHFRWGKPVGKKRRPVKVYP (Nle at position 1 and dPhe at position 4 as printed: Nle-EH-dPhe-RWSYSMEHFRWGKPVGKKRRPVKVYP) [NDP-ACTH4-9-ACTH1-24] ?
0.8

Entry under review: SYSMEHFRWGKPVGKKRRPVKVYPGGGGSRRKRSYS[Nle]EH[dF]RWGKPV [ACTH1-24-proconvertase-NDP-α-MSH] . Reported MCR4 EC50 (nM); cAMP production, LANCE cAMP assay, CHO-MCR4 cells, cell pool B?
1.6

Query (binder): NDP-α-MSH-linker-MMP (broad) site-linker-ACTH1-24 (peptide) peptide: Ac-SYS[Nle]EH[dF]RWGKPVGGGGSPAGLVAGGGGSSYSMEHFRWGKPVGKKRRPVKVYP ; field requested: MCR4 EC50 (nM); cAMP production, LANCE cAMP assay, CHO-MCR4 cells, cell pool B
1.9

Look up MCR4 EC50 (nM); cAMP production, LANCE cAMP assay, CHO-MCR4 cells, cell pool B: NDP-α-MSH-linker-Furin site-linker-ACTH1-24 (peptide) peptide: Ac-SYS[Nle]EH[dF]RWGKPVGGGGSRRKRGGGGSSYSMEHFRWGKPVGKKRRPVKVYP
6.5
